Tested on: Fibroblast
Experimental Protocol: Multiplex assay against human fibroblast
Type: toxicity, cell-based
Details: 24 h, 1 µM, compound concentration 1 uM, replicate 2
Quick reference: Population Membrane Permeable-Phenotype (%) of the listed items.
Result Type: Population Membrane Permeable-Phenotype (%)

[[record]]
compound = "CC(C)NCC(O)COc1ccc(CCOCC2CC2)cc1.Cl (centres undefined) [BETAXOLOL HYDROCHLORIDE]"
assay_target = "Fibroblast"
observed_result = 4

[[record]]
compound = "COc1ncc(-c2ccc3nccc(-c4ccnnc4)c3c2)cc1NS(=O)(=O)c1ccc(F)cc1F"
assay_target = "Fibroblast"
observed_result = 24

[[record]]
compound = "Cn1cc(-c2[nH]c3cc(NC(=O)[C@H](N)C4CCCCC4)cc4c3c2C=NNC4=O)cn1"
assay_target = "Fibroblast"
observed_result = 9

[[record]]
compound = "CN1CCN(CCOc2cc(OC3CCOCC3)c3c(Nc4c(Cl)ccc5c4OCO5)ncnc3c2)CC1"
assay_target = "Fibroblast"
observed_result = 6

